System: MS2 coat protein
Assay: apparent KD of MS2 coat protein; designed switch direction (-1 OFF switch, 1 ON switch): 1; higher = weaker reporter binding
Conditions: input ligand: FMN 200 uM
Label condition not met if apparent KD of MS2 coat protein falls below 30 nM; label condition met in every other case.

| sequence_content | class_name |
| --- | --- |
| ACAUGAGAGAUAGGAUAUGUUGUACCUACAUGUGACAUGAGGAUCACCCAUGUGGUAAGUAUGAGACAGAAGGAUCAGAUAUGU [Equivalence 31 - Jieux - Same State NG 2] (Eterna round: R96, puzzle: Same State NG 2) | condition not met |
| AGCCGAGACACAGGAUAUAGAUAUCUACAUGAGGAUCACCCAUGUAGCAACACGUGGUAGUGAUUCUAGAAGGGUGCUCGGCGC [Omei SS(NG)2 Cv8] (Eterna round: R96, puzzle: Same State NG 2) | condition not met |
| GUAGCAUACCGAGGAUAUUCAAAUUAACAUGAGGAUCACCCAUGUAGGCCACAUUAGUGGCCUUGGGAGAAGGCGGAAUGCUAC [Xeonanis - 20 Mod39] (Eterna round: R96, puzzle: Same State NG 2) | condition not met |
| GGUCCAGCCUGAGCUGGACAAAAGCAUGUACAUGAGGAUCACCCAUGUCAUGUACAAGCUUUUUGCUCGUCUUAAGU [Mat - hsa-mir-208a - 86] (Eterna round: R96, puzzle: Sensor for hsa-mir-208a) | condition met |
| AGCUAGUACCGAGGAUAUACGUACAUGAGGAUCACCCAUGUAUACAUGGUUUAAUGAGACUACAUGUAGAAGGCGGUACUAGCA [JL SSNG2 1.25] (Eterna round: R96, puzzle: Same State NG 2) | condition met |
| UAAAUACAUGAGGAUCACCCAUGUCAAAAGACAUGAGGAUAUGUACAGUCUUCGGUCUGUACAGAAGGCAUGAAUA [salish99_ss1_r3_097] (Eterna round: R96, puzzle: Same State 1) | condition met |
| UAGAUUCACGUAGGAUAUCGACCUACAUGAGGAUCACCCAUGUUUUUGAAUAGAUUUUUUAGUUACGAGAAGGACGUUAUGUAU [JR_SSNG2_Sub063] (Eterna round: R96, puzzle: Same State NG 2) | condition met |
| GGAGCCAGCACCGAGGAUAUUCAUAUUAAAACAUGAGGAUCACCCAUGUAGGCCAGAAGGCCUUGGGAGAAGGCGGACUGGCUCG [Xeonanis - 11] (Eterna round: R96, puzzle: Same State 2) | condition not met |

Ref: the supplement of paper PMC9170038
